Molecular target: NEMO/IKKβ complex (MBP-IKKβ (701–745) / GST-NEMO (1–196)) (Homo sapiens, UniProt Q9Y6K9)
Construct: made in house; host or cells: E. coli BL21(DE3)
Sequence (Q9Y6K9 1-196, one chain of several): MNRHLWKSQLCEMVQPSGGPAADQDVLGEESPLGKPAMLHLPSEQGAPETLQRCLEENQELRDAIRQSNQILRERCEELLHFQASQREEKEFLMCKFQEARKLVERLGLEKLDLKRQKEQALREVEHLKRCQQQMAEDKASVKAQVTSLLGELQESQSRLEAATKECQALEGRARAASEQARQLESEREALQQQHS
Assay: SPR competition assay of NEMO/IKKβ binding
Conditions: IC50 for inhibiting binding of MBP-IKKβ (701–745) to GST-NEMO (1–196), GST-NEMO immobilized; SHK pre-incubated with 0.5 μM MBP-IKKβ for 30 min

compound	measured_target	IC50
CC(C)=CC[C@@H](O)C1=CC(=O)c2c(O)ccc(O)c2C1=O [SHK, Shikonin]	NEMO/IKKβ complex (MBP-IKKβ (701–745) / GST-NEMO (1–196)) (Homo sapiens, UniProt Q9Y6K9)	0.171 µM
